Data origin, for the record: the supplement of paper PMC10567573

Quick reference: protein stability index of the listed items.
B1: CHCHD6 (parent)
chain: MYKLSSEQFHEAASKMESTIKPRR

# Variants of: B1
# EXPERIMENTAL DETAILS: protein stability index of a GFP-peptide fusion (GPS, HEK-293T) (PSI 1-6); higher = more stable;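 further: lentivirally expressed fusions sorted by FACS into six bins by GFP to DsRed ratio, PSI derived from sequencing read proportions per bin multiplied by bin number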
# CONDITION INFO: c terminus: a fixed tail appended
Give only the figure.

| VARIANT STRING | protein stability index |
| --- | --- |
| E7T | 3.2 |
| Q8V | 3.49 |
| T19W | 2.15 |
| M16K | 4.31 |
| S6I | 2.64 |
| K3G | 4.46 |
| T19I | 3.12 |
| F9E | 4.43 |

query: Field request: protein stability index | item: `S6A`
result: 3.64

query: Field request: protein stability index | item: `E11Y`
result: 3.52

query: Field request: protein stability index | item: `A12D`
result: 4.17

query: Field request: protein stability index | item: `M1P`
result: 4.36

query: Field request: protein stability index | item: `S6R`
result: 3.39

query: Field request: protein stability index | item: `R23T`
result: 3.31
